# System: goosegrass
# procedure.summary: Test F preemergence test
# Type: in vivo, Eleusine indica
# applied.conditions: 125 g ai/ha, preemergence, scale 0 to 100
result.type: Goosegrass plant response rating

>  <compound>
Cn1nc(C(F)(F)F)c(C[S+]([O-])c2cccc[n+]2[O-])c1Cl (stereo not drawn) [Compound 8]

>  <reported.result>
100

$$$$
>  <compound>
Cn1nc(C(F)(F)F)c(C[S+]([O-])c2ccc(F)c[n+]2[O-])c1OC(F)F (stereo not drawn) [Compound 58]

>  <reported.result>
98

$$$$
>  <compound>
Cc1cc[n+]([O-])c([S+]([O-])Cc2c(C(F)(F)F)nn(C)c2OCC(F)(F)F)c1 (racemic) [Compound 30]

>  <reported.result>
98

$$$$
>  <compound>
Cn1nc(C(F)(F)F)c(C[S+]([O-])c2cccc[n+]2[O-])c1OCC(F)(F)F (racemic) [Compound 28]

>  <reported.result>
100

$$$$
>  <compound>
Cc1cc[n+]([O-])c(S(=O)(=O)Cc2c(C(F)(F)F)nn(C)c2Cl)c1 [Compound 19]

>  <reported.result>
100

$$$$
>  <compound>
Cc1cc[n+]([O-])c(S(=O)(=O)Cc2c(C(F)(F)F)nn(C)c2OCC(F)(F)F)c1 [Compound 31]

>  <reported.result>
100

$$$$
